Reference source for all entries: ChEMBL document CHEMBL1139368

Test system: 8505C
Test: Cytotoxicity against human 8505C cells after 96 hrs by SRB assay
Type: functional, cell-based
MEASURED METRIC: pIC50
Give bare numbers, as −log10 of the molar value.

Query: Value lookup for pIC50; key = `COc1ccc(/C=C/C(=O)c2cc(OC)c(OC)c(OC)c2)cc1O`
Reply: 7.30

----------
Experiment: Cytotoxicity against human A253 cells after 96 hrs by SRB assay
Assay type: functional, cell-based
Settings: A253, 96 h
MEASURED METRIC: pIC50
Answers are plain numbers, as −log10 of the molar value.

Query: pIC50; subject: `COc1ccc(/C=C/C(=O)c2cc(OC)c(OC)c(OC)c2)cc1O`
Reply: 7.64
